Value source: a melting point compilation (Tetko et al.; mined from patent text by program, amines drawn as free bases though some values may be those of a salt)

Hi there, I'd appreciate the recorded melting point for every entry that follows.

Use the examples below as a reference point.
>  <compound>
CC(CCc1c[nH]c2c(F)cc(F)cc12)N(CC1CC1)C1COc2c(F)ccc(C(N)=O)c2C1 (stereo not given)

>  <melting point>
175 to 180 °C

$$$$
>  <compound>
COC(=O)C1=C(C)NN=C(c2ccco2)C1c1ccccc1Cl (stereo not given)

>  <melting point>
195 °C

$$$$
>  <compound>
CCCCCCCCOC(=O)Oc1ccc(C(=O)O)cc1

>  <melting point>
126 °C

$$$$
>  <compound>
CCCCOc1nc(N)c2nc(Br)n(C3CCCCO3)c2n1 (stereo not given)

>  <melting point>
148 to 150 °C

$$$$

Dear reader, for each entry below, please note its melting point.
1. Fc1ccc(-c2nc(Cl)nc3c2CCC3)cc1
2. COc1cc(OC)c(C=O)cc1I
3. Cc1oc2ccccc2c1C(=O)N(Cc1ccccc1)Cc1ccc2cc(O)ccc2c1
4. CN(C)c1ccc(S(=O)(=O)N2CCCCC2=O)cc1
5. COc1ccc(Nc2nccc(-c3ccncc3)n2)cc1
6. COc1ccc(C(C#Cc2cnc(N)nc2)Cc2nc(C)co2)cc1OC1CCCC1 (racemic)
7. CS(=O)(=O)c1ccc(-c2cc(F)c(F)cc2-c2ccc(F)cc2)cc1

Data returned:
106 to 107 °C
170 to 172 °C
190 to 193 °C
165 to 170 °C
174 to 175 °C
103 to 105 °C
148 °C
